# testSummary: Cell Viability - LYMP1-002 - Assay at 16 hr (AID 948); note: potency is the fitted concentration of half-maximal effect
# recordedConditions: LYMP1-002 lymphoblastoid cell viability; series mostly up to 92.2 µM
Results filed as inconclusive are left out. Activity calls are given as the source filed them. Calls come from the whole dose curve; as a rule, active = well fitted cell-killing curve with a large enough effect; inconclusive = small, poorly fitted or top-dose-only effect; inactive = flat fitted curve, though single readings scatter.
propertyMeasured: Potency

compound=OC[C@H]1O[C@@H]2O[C@H]3[C@H](O)[C@@H](O)[C@@H](O[C@H]4[C@H](O)[C@@H](O)[C@@H](O[C@H]5[C@H](O)[C@@H](O)[C@@H](O[C@H]6[C@H](O)[C@@H](O)[C@@H](O[C@H]7[C@H](O)[C@@H](O)[C@@H](O[C@H]1[C@H](O)[C@H]2O)O[C@@H]7CO)O[C@@H]6CO)O[C@@H]5CO)O[C@@H]4CO)O[C@@H]3CO propertymeasured=Potency observedmeasurement=inactive
compound="O=c1n(CC2CO2)c(=O)n(CC2CO2)c(=O)n1CC1CO1 (centres undefined)" propertymeasured=Potency observedmeasurement="39.8 µM (active)"
compound=Nc1ncnc2c1ncn2[C@H]1CC[C@@H](CO)O1 propertymeasured=Potency observedmeasurement=inactive
compound=CO propertymeasured=Potency observedmeasurement=inactive
compound=CCCCC propertymeasured=Potency observedmeasurement=inactive
compound=CCOC(C)OCC propertymeasured=Potency observedmeasurement=inactive
compound=Nc1ccc(N=Nc2ccccc2)c(N)n1 propertymeasured=Potency observedmeasurement=inactive
compound=Oc1cccc(O)c1O propertymeasured=Potency observedmeasurement=inactive
compound=C[C@H](CCC(=O)O)[C@H]1CC[C@H]2[C@@H]3CC[C@@H]4C[C@H](O)CC[C@]4(C)[C@H]3C[C@H](O)[C@]12C propertymeasured=Potency observedmeasurement=inactive
compound=CC1=CC(=O)NS(=O)(=O)O1 propertymeasured=Potency observedmeasurement=inactive
compound=Cc1ncc[nH]1 propertymeasured=Potency observedmeasurement=inactive
compound=ClC(Cl)Cl propertymeasured=Potency observedmeasurement=inactive
compound=C[C@H](CCC(=O)O)[C@H]1CC[C@H]2[C@@H]3[C@H](O)C[C@@H]4C[C@H](O)CC[C@]4(C)[C@H]3C[C@H](O)[C@]12C propertymeasured=Potency observedmeasurement=inactive
compound=CO/N=C(/C(=O)N[C@@H]1C(=O)N2C(C(=O)O)=C(COC(N)=O)CS[C@H]12)c1ccco1 propertymeasured=Potency observedmeasurement=inactive
compound=CC(C)O propertymeasured=Potency observedmeasurement=inactive
compound="C=C1C(CCl)(CCl)C2(Cl)C(Cl)C(Cl)C1(Cl)C2(Cl)Cl (centres undefined)" propertymeasured=Potency observedmeasurement="50.1 µM (active)"
compound=O.O.O.O.O.O.O.O=S(=O)([O-])[O-].[Co+2] propertymeasured=Potency observedmeasurement=inactive
compound=COC(=O)c1ccccc1O propertymeasured=Potency observedmeasurement=inactive
compound=OCl propertymeasured=Potency observedmeasurement=inactive

----------
Measured activity change, negative = cytotoxicity by item
# testSummary: Cell Viability - N2a (AID 540);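 note: cells exposed to compound for 40 h at 37 °C; plate controls were DMSO alone for no effect and tamoxifen control for full effect; nearly all actives have a fitted effect of over 45% in size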
# recordedConditions: N2a mouse neuroblastoma cell viability; at 92.2 µM (top of the series)
# From the text: NIH Chemical Genomics Center [NCGC] NIH Molecular Libraries Screening Centers Network [MLSCN] National Institutes of Environmental Health Sciences [NIEHS] National Toxicology Program [NTP] We have developed a 1536-well cell-based assay for quantitative high throughput screening (qHTS) against a number of cell lines to determine in vitro cytotoxicity of small molecules. […] 8. Detection; Luminescence; Viewlux plate reader […]
Records with an inconclusive call do not appear. The source made the active and inactive calls. The call rests on the fitted dose curve; in most records, active means well fitted cell-killing curve with a large enough effect; inconclusive means small, poorly fitted or top-dose-only effect; inactive means flat fitted curve, though single readings scatter.
propertyMeasured: activity change, negative = cytotoxicity

compound=C[C@H](CCC(=O)O)[C@H]1CC[C@H]2[C@@H]3[C@H](O)C[C@@H]4C[C@H](O)CC[C@]4(C)[C@H]3C[C@H](O)[C@]12C observedmeasurement="-9.32% (inactive)"
compound=Nc1ncnc2c1ncn2[C@H]1CC[C@@H](CO)O1 observedmeasurement="6.32% (inactive)"
compound=OCc1ccccc1 observedmeasurement="4.71% (inactive)"
compound=Cc1ccc(S(=O)(=O)O)cc1C observedmeasurement="-7.07% (inactive)"
compound=O.O.O.O.O.O.O.O=S(=O)([O-])[O-].[Co+2] observedmeasurement="-16.8% (inactive)"
compound=NC(N)=O observedmeasurement="12.5% (inactive)"
compound=c1ccc2ccccc2c1 observedmeasurement="6.48% (inactive)"
compound=CC1=CC(=O)NS(=O)(=O)O1 observedmeasurement="-19.6% (inactive)"
compound=[O-][N+](=Nc1ccccc1)c1ccccc1 observedmeasurement="4.21% (inactive)"
compound=OB(O)O observedmeasurement="-10.8% (inactive)"
compound=C[C@H](CCC(=O)O)[C@H]1CC[C@H]2[C@@H]3CC[C@@H]4C[C@H](O)CC[C@]4(C)[C@H]3C[C@H](O)[C@]12C observedmeasurement="-18.5% (inactive)"
compound=OCl observedmeasurement="-0.881% (inactive)"
compound=Nc1ccc(N=Nc2ccccc2)c(N)n1 observedmeasurement="-30.4% (inactive)"
compound="C=C1C(CCl)(CCl)C2(Cl)C(Cl)C(Cl)C1(Cl)C2(Cl)Cl (configuration not stated)" observedmeasurement="-112% (active)"
compound=ClC(Cl)Cl observedmeasurement="-12.8% (inactive)"
compound=Nc1nccs1 observedmeasurement="4.71% (inactive)"
compound=COC(=O)c1ccccc1O observedmeasurement="0.567% (inactive)"
compound=CC/C=C\C/C=C\C/C=C\CCCCCCCC(=O)O observedmeasurement="-20.9% (inactive)"
compound=CO observedmeasurement="8.2% (inactive)"
compound=CO/N=C(/C(=O)N[C@@H]1C(=O)N2C(C(=O)O)=C(COC(N)=O)CS[C@H]12)c1ccco1 observedmeasurement="8.73% (inactive)"
compound=OC[C@H]1O[C@@H]2O[C@H]3[C@H](O)[C@@H](O)[C@@H](O[C@H]4[C@H](O)[C@@H](O)[C@@H](O[C@H]5[C@H](O)[C@@H](O)[C@@H](O[C@H]6[C@H](O)[C@@H](O)[C@@H](O[C@H]7[C@H](O)[C@@H](O)[C@@H](O[C@H]1[C@H](O)[C@H]2O)O[C@@H]7CO)O[C@@H]6CO)O[C@@H]5CO)O[C@@H]4CO)O[C@@H]3CO observedmeasurement="-3.62% (inactive)"
compound=O=P(O)(O)O observedmeasurement="-12.4% (inactive)"
